Each entry below carries its recorded Papp A→B at 3 h, 20 uM.
experiment: Parallel artificial membrane permeability assay (PAMPA); conditions: pH 7.4
endpoint: Papp A→B at 3 h, 20 uM (×10⁻⁶ cm/s)

- compound: "CN1Cc2c(Cl)cc(Cl)cc2C(c2cccc(S(=O)(=O)NCCN(CCNS(=O)(=O)c3cccc(C4CN(C)Cc5c(Cl)cc(Cl)cc54)c3)CCNS(=O)(=O)c3cccc(C4CN(C)Cc5c(Cl)cc(Cl)cc54)c3)c2)C1 (stereo not shown)"
  qualifier: "<"
  testResult: 0.02
- compound: "C/C(=C\\c1cc(F)c(Oc2ccc(S(=O)(=O)NCCOCCOCCOCCNC(=O)CCCCCCC(=O)NCCOCCOCCOCCNS(=O)(=O)c3ccc(Oc4c(F)cc(/C=C(\\C)C(=O)N=C(N)N)cc4F)cc3)cc2)c(F)c1)C(=O)N=C(N)N"
  qualifier: "<"
  testResult: 0.01
- compound: "NC(N)=Nc1nc(-c2cccc(N3CCN(C(=O)[C@H](O)[C@@H](O)[C@H](O)[C@H](O)CO)CC3)c2)c2cc(Cl)ccc2n1"
  qualifier: "="
  testResult: 0.43
- compound: "CN1Cc2c(Cl)cc(Cl)cc2C(c2ccc(S(=O)(=O)NCc3ccc(CP(=O)(O)O)cc3)cc2)C1 (stereo not shown)"
  qualifier: "="
  testResult: 0.4
- compound: "NC(N)=Nc1nc(-c2cccc(N3CCN(CCCC(=O)O)CC3)c2)c2cc(Cl)ccc2n1"
  qualifier: "="
  testResult: 0.4
- compound: "CN1Cc2c(Cl)cc(Cl)cc2C(c2ccc(S(=O)(=O)NCCOCCOCCNS(=O)(=O)c3ccc(C4CN(C)Cc5c(Cl)cc(Cl)cc54)cc3)cc2)C1 (stereo not shown)"
  qualifier: "<"
  testResult: 0.02
- compound: "CN1Cc2c(Cl)cc(Cl)cc2C(c2ccc(S(=O)(=O)NCCCCCCCCCCCCNS(=O)(=O)c3ccc(C4CN(C)Cc5c(Cl)cc(Cl)cc54)cc3)cc2)C1 (stereo not shown)"
  qualifier: "<"
  testResult: 0.04
